Recorded values, source paper PMC12332554.

Record set of pIC50 for target or system AChE (Homo sapiens).
API: returns pIC50 as number; meaning -log10 of concentration in mol/L.

// solved cases for pIC50 follow
{"columns": ["smilesStructure", "quantitativeReadout"],
 "data": [
  ["O=C(c1ccccc1)c1oc2ccccc2c1CSC(=S)N1CCC(Cc2ccccc2)CC1", 7.31],
  ["O=C(c1ccccc1)c1oc2ccccc2c1CSC(=S)N1CCN(CCO)CC1", 7.54],
  ["O=C(c1ccccc1)c1oc2ccccc2c1CSC(=S)N1CCN(c2ccc(F)cc2)CC1", 7.39]
]}

Continue with the compound presented below.
Query: Need pIC50, item O=C(c1ccccc1)c1oc2ccccc2c1CSC(=S)N1CCN(C(=O)c2ccco2)CC1
Result: 7.27
